All values here come from PubChem BioAssay AID1159580.

Method description: chemical genetic growth profiling, strain panel (AID 1159580);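 also: tested at 20 µM; growth read once vehicle control cultures reached saturation at 30 °C; lower values mean less growth of the strain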
Experimental parameters: S. cerevisiae deletion strains, growth OD, locus YHR087W, strain rtc3
Screen size: about 5,500 compounds; about 2,000 (36%) were called active. Inconclusive results (about 18%) are left out. Rule as the data show it: active = normalized growth mostly below about 0.91 (no sharp cut-off); inconclusive = no clear call, values can overlap the other calls; inactive = mostly above about 0.92. The list shows a part of the results.
Select the correct class. Options are active, inactive and nothing else.

Example results:
INSERT INTO measurements (molecule, class) VALUES
  ('N/C(=N/OC(=O)Nc1ccccc1)c1ccc(C2SCCS2)cc1', 'active'),
  ('CCOC(=O)c1sc2sc(C(=O)c3ccc(Cl)cc3)c(C)c2c1C', 'inactive'),
  ('CCN1CN=C(SCc2ccc(Br)cc2)NC1', 'inactive'),
  ('CCOC(=O)C(=CNNS(=O)(=O)c1cc(C(F)(F)F)cc(C(F)(F)F)c1)C(=O)OCC', 'inactive'),
  ('O=C(Nc1cc(C(F)(F)F)cc(C(F)(F)F)c1)C(c1ccccc1)C1CCCC1 (configuration not stated)', 'inactive');

Task: GET /call?item= COc1cscc1C(N)=O returns the recorded outcome of this test.
Result: inactive

Task: GET /call?item= O=[N+]([O-])c1ccc(C(O)C(O)CO)cc1 (configuration not stated) returns the recorded outcome of this test.
Result: inactive

Task: GET /call?item= CCOC(=O)C(c1ccccc1)C(Nc1ccc(Cl)c(Cl)c1)c1ccccn1 (configuration not stated) returns the recorded outcome of this test.
Result: inactive

Task: GET /call?item= Clc1ccc(Oc2ccnc3cc(Cl)ccc23)cc1 returns the recorded outcome of this test.
Result: inactive

Task: GET /call?item= CC12CCC3C(CC[C@H]4CC5(CCC34C)OCCO5)C1CCC2O (some centres not stated) returns the recorded outcome of this test.
Result: inactive

Task: GET /call?item= NNC(=O)c1cnn(-c2ccc(Cl)cc2)c1C(F)(F)F returns the recorded outcome of this test.
Result: inactive

Task: GET /call?item= O=C1NC2(CCN(Cc3ccccc3)CC2)Oc2ccccc21 returns the recorded outcome of this test.
Result: inactive

Task: GET /call?item= CC(C)(CC(=O)O)CC(=O)Nc1cc(C(F)(F)F)cc(C(F)(F)F)c1 returns the recorded outcome of this test.
Result: inactive

Task: GET /call?item= O=C1NN(c2ccccc2)C(=S)Nc2ccccc21 returns the recorded outcome of this test.
Result: inactive

Task: GET /call?item= NC(=O)N[C@@H]1O[C@H](CO)[C@@H](O)[C@H](O)[C@H]1O returns the recorded outcome of this test.
Result: inactive
